assay: First anodic oxidation potential by differential pulse voltammetry (DPV); format: physicochemical; settings: DPV, first anodic peak, 0.25 mM standard in 0.1 M Britton-Robinson buffer pH 6.0 in 80% methanol, glassy carbon vs Ag/AgCl, 100 mV/s
Marks after values point to notes of the source that are not given here.
resultType: Anodic Peak Potential Epa

QUERY: Check the records and state Anodic Peak Potential Epa for COc1cc(/C=C/C(=O)O)cc(OC)c1O [Sinapic acid]
RESULT: 618 ± 7 ^c mV

QUERY: Give the measured Anodic Peak Potential Epa for O=C(O)c1ccc(O)cc1 [4-HBA, 4-hydroxybenzoic acid]
RESULT: 961 ± 11 ^a mV

QUERY: Kindly indicate its recorded Anodic Peak Potential Epa. Item: O=C(O)CCc1ccc(O)cc1O [3-2,4-DHPPA, 3-(2,4-dihydroxyphenyl)propionic acid]
RESULT: 659 ± 8 ^e mV

QUERY: Quickly give me recorded Anodic Peak Potential Epa for O=C(/C=C/c1ccc(O)c(O)c1)O[C@@H]1C[C@](O)(C(=O)O)C[C@@H](O)[C@H]1O [Chlorogenic acid]
RESULT: 443 ± 9 ^d mV

QUERY: Give recorded Anodic Peak Potential Epa. O=C(O)CCc1ccc(O)cc1 [4-HPPA, 3-(4-hydroxyphenyl)propionic acid]
RESULT: 664 ± 8 ^e mV

QUERY: Give Anodic Peak Potential Epa for O=c1cc(-c2ccc(OC3OC(CO)C(O)C(O)C3O)c(O)c2)oc2cc(O)cc(O)c12 (centres unmarked) [Luteolin-4′-O-glucoside]
RESULT: 828 ± 5 ^b mV

QUERY: Let me know recorded Anodic Peak Potential Epa for O=c1c(OC2OC(CO)C(O)C(O)C2O)c(-c2ccc(O)c(O)c2)oc2cc(O)cc(O)c12 [Hyperoside, quercetin-3-O-D-galactoside] , thanks.
RESULT: 307 ± 3 ^h mV

QUERY: Identify Anodic Peak Potential Epa associated with the compound O=C(O)Cc1cccc(O)c1 [3-HPAA, 3-hydroxyphenylacetic acid]
RESULT: 883 ± 11 ^b mV

These entries and their values trace back to paper PMC12298876.
